# measuredOn: UniProtKB P40763
# test: MSD-pSTAT-PBMC Assay (pSTAT3, IL-6 stimulated)
# Type: cell-based
# assayConditions: compound 3 hrs, then 10 ng/mL IL-6 10 min, pY705-STAT3, read-out: pSTAT3 IC50
pIC50: −log10 of the molar value.
quantityKind: pIC50

// below: answered molecules
CCCC(=O)SCCOP(=O)(OCCSC(=O)CCC)C(F)(F)c1ccc2sc(C(=O)N[C@H]3CCC[C@H]4CC[C@@H](C(=O)N5CC(c6cnccc6OCCOc6ccc(C7CCC(=O)NC7=O)cc6)C5)N4C3=O)cc2c1 (stereo partly drawn) [Compound 10]; > 7.00
CCCC(=O)SCCOP(=O)(OCCSC(=O)CCC)C(F)(F)c1ccc2sc(C(=O)N[C@H]3CCC[C@H]4CC[C@@H](C(=O)N5CC(c6cnccc6N(C)CCOc6ccc(C7CCC(=O)NC7=O)cc6)C5)N4C3=O)cc2c1 (stereo partly drawn) [Compound 20]; > 7.00
Cn1c(=O)n(C2CCC(=O)NC2=O)c2ccc(C#CCCC3CCN(c4ccncc4C4CN(C(=O)[C@@H]5CC[C@@H]6CCC[C@H](NC(=O)c7cc8cc([C@H](F)P(=O)(O)O)ccc8s7)C(=O)N65)C4)CC3)cc21 (stereo partly drawn) [Compound 37]; 6.00 to 7.00
CCCC(=O)SCCOP(=O)(OCCSC(=O)CCC)C(F)(F)c1ccc2sc(C(=O)N[C@H]3CCC[C@H]4CC[C@@H](C(=O)N5CC(c6cnccc6OCCOCCOc6ccc(C7CCC(=O)NC7=O)cc6)C5)N4C3=O)cc2c1 (stereo partly drawn) [Compound 12]; > 7.00

Please give measured pIC50 of the following entry: Cn1c(=O)n(C2CCC(=O)NC2=O)c2ccc(C#CCCC3CCN(c4ccncc4C4CN(C(=O)[C@@H]5CC[C@@H]6CCC[C@H](NC(=O)c7cc8cc(C(F)(F)P(=O)(O)O)ccc8s7)C(=O)N65)C4)CC3)cc21 (stereo partly drawn) [Compound 34]
6.00 to 7.00

State, in one line, measured pIC50 of CN(CCOc1ccc(C2CCC(=O)NC2=O)cc1)c1ccncc1C1CN(C(=O)[C@@H]2CC[C@@H]3CCC[C@H](NC(=O)c4cc5cc(C(F)(F)P(=O)(O)O)ccc5s4)C(=O)N32)C1 (stereo partly drawn) [Compound 21]
< 5.52

Determine its reported pIC50: Cc1ncsc1-c1ccc(CNC(=O)[C@@H]2C[C@@H](O)CN2C(=O)[C@@H](NCCCCOc2ccncc2C2CN(C(=O)[C@@H]3CC[C@@H]4CCC[C@H](NC(=O)c5cc6cc(C(F)(F)P(=O)(O)O)ccc6s5)C(=O)N43)C2)C(C)(C)C)cc1 [Compound 2]
< 5.52

Output pIC50 of O=C1CCC(c2ccc(OCCOc3ccncc3C3CN(C(=O)[C@@H]4CC[C@@H]5CCC[C@H](NC(=O)c6cc7cc(C(F)(F)P(=O)(O)O)ccc7s6)C(=O)N54)C3)cc2)C(=O)N1 (stereo partly drawn) [Compound 9]
< 5.52

Indicate its recorded pIC50; the molecule in question is O=C1CCC(c2ccc(OCC(=O)N3CCN(c4ccncc4C4CN(C(=O)[C@@H]5CC[C@@H]6CCC[C@H](NC(=O)c7cc8cc(C(F)(F)P(=O)(O)O)ccc8s7)C(=O)N65)C4)CC3)cc2)C(=O)N1 (stereo partly drawn) [Compound 28]
< 5.52

###

# measuredOn: STAT3 (Homo sapiens)
# Construct: Recombinant STAT3 protein (STAT3(G127-I722))
# Sequence (P40763 127-722): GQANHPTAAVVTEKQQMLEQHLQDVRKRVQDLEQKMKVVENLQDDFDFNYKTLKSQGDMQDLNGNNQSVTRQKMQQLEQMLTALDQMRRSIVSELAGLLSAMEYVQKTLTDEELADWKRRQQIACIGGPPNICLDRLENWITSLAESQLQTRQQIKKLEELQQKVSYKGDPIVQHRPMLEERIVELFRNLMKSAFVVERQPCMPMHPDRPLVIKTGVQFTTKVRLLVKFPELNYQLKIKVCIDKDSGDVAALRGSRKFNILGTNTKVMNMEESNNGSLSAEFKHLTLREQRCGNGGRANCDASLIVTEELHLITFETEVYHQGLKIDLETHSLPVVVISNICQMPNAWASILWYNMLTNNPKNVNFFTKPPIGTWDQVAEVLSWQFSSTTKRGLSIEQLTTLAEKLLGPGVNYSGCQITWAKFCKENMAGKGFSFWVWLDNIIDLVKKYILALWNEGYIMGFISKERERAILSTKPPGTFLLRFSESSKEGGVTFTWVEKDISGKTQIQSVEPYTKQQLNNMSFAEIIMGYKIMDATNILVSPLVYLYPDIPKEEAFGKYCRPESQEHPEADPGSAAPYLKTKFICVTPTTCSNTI
# test: STAT3 Fluorescence Polarization (FP) Assay
pIC50: −log10 of the molar value.
Here, each record is paired with measured pIC50 data.

Cn1c(=O)n(C2CCC(=O)NC2=O)c2ccc(C#CCCC3CCN(c4ccncc4C4CN(C(=O)[C@@H]5CC[C@@H]6CCC[C@H](NC(=O)c7cc8cc(C(F)P(=O)(O)O)ccc8s7)C(=O)N65)C4)CC3)cc21 (stereo partly shown); > 7.00
O=C1CCC(c2ccc(OCCOCCOc3ccncc3C3CN(C(=O)[C@@H]4CC[C@@H]5CCC[C@H](NC(=O)c6cc7cc(C(F)(F)P(=O)(O)O)ccc7s6)C(=O)N54)C3)cc2)C(=O)N1 (stereo partly shown); > 7.00
O=C1CCC(n2c(=O)[nH]c3cc(N4CCC(n5ccc([C@@H]6CN(C(=O)[C@@H]7CC[C@@H]8CCCC[C@H](NC(=O)c9cc%10cc(C(F)(F)P(=O)(O)O)ccc%10s9)C(=O)N87)C7(CC7)C6)cc5=O)CC4)ccc32)C(=O)N1 (stereo partly shown); 5.00 to 6.00

Return pIC50 (reported value) for this molecule: O=C(COc1cccc2c1C(=O)N(C1CCC(=O)NC1=O)C2=O)NCCOCCOCCC(=O)NC1(c2ccccn2)CN(C(=O)[C@@H]2CC[C@H]3CCCC[C@H](NC(=O)c4cc5cc(C(F)(F)P(=O)(O)O)ccc5s4)C(=O)N32)C1 (stereo partly shown)
> 7.00

###

# measuredOn: pSTAT6 (Homo sapiens, UniProt P42226)
# Sequence (P42226 whole entry): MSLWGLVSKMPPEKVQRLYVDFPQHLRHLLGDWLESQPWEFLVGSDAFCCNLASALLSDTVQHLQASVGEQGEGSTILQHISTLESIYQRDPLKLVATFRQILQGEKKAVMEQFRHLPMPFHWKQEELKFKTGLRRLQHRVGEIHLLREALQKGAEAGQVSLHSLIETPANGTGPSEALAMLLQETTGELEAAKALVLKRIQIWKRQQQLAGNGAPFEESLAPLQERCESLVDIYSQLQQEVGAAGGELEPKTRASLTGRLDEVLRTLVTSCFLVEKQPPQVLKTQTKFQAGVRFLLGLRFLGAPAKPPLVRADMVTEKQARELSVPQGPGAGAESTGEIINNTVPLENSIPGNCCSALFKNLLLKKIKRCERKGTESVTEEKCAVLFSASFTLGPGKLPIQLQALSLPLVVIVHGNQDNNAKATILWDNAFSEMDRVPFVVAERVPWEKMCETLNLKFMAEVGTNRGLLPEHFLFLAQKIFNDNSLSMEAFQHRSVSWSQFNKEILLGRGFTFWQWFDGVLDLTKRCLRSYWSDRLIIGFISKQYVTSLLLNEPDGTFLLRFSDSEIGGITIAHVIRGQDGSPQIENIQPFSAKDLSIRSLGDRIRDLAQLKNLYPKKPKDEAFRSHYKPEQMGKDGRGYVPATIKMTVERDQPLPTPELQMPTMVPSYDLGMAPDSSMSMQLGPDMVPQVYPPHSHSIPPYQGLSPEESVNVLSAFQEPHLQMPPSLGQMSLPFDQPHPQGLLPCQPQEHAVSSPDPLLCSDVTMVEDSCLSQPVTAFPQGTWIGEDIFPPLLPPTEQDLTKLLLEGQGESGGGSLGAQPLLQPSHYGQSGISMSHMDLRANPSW
# test: MSD-pSTAT-PBMC Assay (pSTAT6, IL-4 stimulated)
# Type: cell-based
# assayConditions: compound 3 hrs, then 1 ng/mL IL-4 10 min, pY641-STAT6, read-out: pSTAT6 IC50
Listed compounds paired with reported IC50

Quote IC50 reported for N#CC1CN(C(=O)C2CCC3CCCCC(NC(=O)c4cc5cc(C(F)(F)P(=O)(O)O)ccc5s4)C(=O)N32)CC1c1cccc(OCCCCCC#Cc2cccc3c2CN(C2CCC(=O)NC2=O)C3=O)c1 (centres unmarked) please.
> 3 µM

Output IC50 of CCCC(=O)SCCOP(=O)(OCCSC(=O)CCC)C(F)(F)c1ccc2sc(C(=O)N[C@H]3CCCC[C@H]4CC[C@@H](C(=O)N5C[C@@H](c6ccn(CCCCCOc7ccc(C8CCC(=O)NC8=O)cc7)c(=O)c6)CC56CC6)N4C3=O)cc2c1 (some centres unmarked)
< 0.1 µM

Dear colleague, please send me the reported IC50 for O=C1CCC(n2c(=O)[nH]c3cc(N4CCC(n5ccc([C@@H]6CN(C(=O)[C@@H]7CC[C@@H]8CCCC[C@H](NC(=O)c9cc%10cc(C(F)(F)P(=O)(O)O)ccc%10s9)C(=O)N87)C7(CC7)C6)cc5=O)CC4)ccc32)C(=O)N1 (some centres unmarked) when you can.
> 3 µM

Name the recorded IC50 of the compound listed here: O=C1CCC(N2Cc3c(OCCOCCOCCn4ccc([C@@H]5CN(C(=O)[C@@H]6CC[C@@H]7CCCC[C@H](NC(=O)c8cc9cc(C(F)(F)P(=O)(O)O)ccc9s8)C(=O)N76)C6(CC6)C5)cc4=O)cccc3C2=O)C(=O)N1 (some centres unmarked)
> 3 µM

// fetch IC50 given entry N#CC1CN(C(=O)C2CCC3CCCCC(NC(=O)c4cc5cc(C(F)(F)P(=O)(O)O)ccc5s4)C(=O)N32)CC1c1cccc(OCCOCCOc2cccc3c2CN(C2CCC(=O)NC2=O)C3=O)c1 (centres unmarked)
1 to 3 µM

###

# measuredOn: STAT3 (Homo sapiens)
# Construct: Recombinant STAT3 protein (STAT3(G127-I722))
# test: STAT3 Fluorescence Polarization (FP) Assay
Below, each entry is listed with its recorded IC50.

State its IC50: Cc1ncsc1-c1ccc([C@H](C)NC(=O)[C@@H]2C[C@@H](O)CN2C(=O)[C@@H](NC(=O)COCCOCC(=O)NC2(c3ccccn3)CN(C(=O)[C@@H]3CC[C@H]4CCCC[C@H](NC(=O)c5cc6cc(C(F)(F)P(=O)(O)O)ccc6s5)C(=O)N43)C2)C(C)(C)C)cc1
< 100 nM

Quickly give me recorded IC50 for O=C1CCC(c2ccc(OCCOc3ccncc3C3CN(C(=O)[C@@H]4CC[C@@H]5CCC[C@H](NC(=O)c6cc7cc(C(F)(F)P(=O)(O)O)ccc7s6)C(=O)N54)C3)cc2)C(=O)N1 (stereo partly shown)
< 100 nM

Please report the measured IC50 for N#CC1CN(C(=O)C2CCC3CCCCC(NC(=O)c4cc5cc(C(F)(F)P(=O)(O)O)ccc5s4)C(=O)N32)CC1c1cccc(OCCCCCC#Cc2cccc3c2CN(C2CCC(=O)NC2=O)C3=O)c1 (stereo not shown)
100 to 1000 nM

Supply reported IC50 belonging to this compound: O=C1CCC(N2Cc3c(C#CCCCCCCn4ccc([C@@H]5CN(C(=O)[C@@H]6CC[C@@H]7CCCC[C@H](NC(=O)c8cc9cc(C(F)(F)P(=O)(O)O)ccc9s8)C(=O)N76)C6(CC6)C5)cc4=O)cccc3C2=O)C(=O)N1 (stereo partly shown)
1000 to 10000 nM

State its IC50: O=C1CCC(c2ccc(OCCCCCOc3cc([C@@H]4CN(C(=O)[C@@H]5CC[C@@H]6CCCC[C@H](NC(=O)c7cc8cc(C(F)(F)P(=O)(O)O)ccc8s7)C(=O)N65)C5(CC5)C4)ccn3)cc2)C(=O)N1 (stereo partly shown)
1000 to 10000 nM

Determine from records and report IC50 for Cc1ncsc1-c1ccc(CNC(=O)[C@@H]2C[C@@H](O)CN2C(=O)[C@@H](NCCCCOc2ccncc2C2CN(C(=O)[C@@H]3CC[C@@H]4CCC[C@H](NC(=O)c5cc6cc(C(F)(F)P(=O)(O)O)ccc6s5)C(=O)N43)C2)C(C)(C)C)cc1
< 100 nM

Name the recorded IC50 of the compound listed here: Cc1ncsc1-c1ccc(CNC(=O)[C@@H]2C[C@@H](O)CN2C(=O)[C@@H](NC(=O)C2CCN(c3ccncc3C3CN(C(=O)[C@@H]4CC[C@@H]5CCC[C@H](NC(=O)c6cc7cc(C(F)(F)P(=O)(O)O)ccc7s6)C(=O)N54)C3)CC2)C(C)(C)C)cc1
< 100 nM

Return IC50 (reported value) for this compound: CN(CCOc1ccc(C2CCC(=O)NC2=O)cc1)c1ccncc1C1CN(C(=O)[C@@H]2CC[C@@H]3CCC[C@H](NC(=O)c4cc5cc(C(F)(F)P(=O)(O)O)ccc5s4)C(=O)N32)C1 (stereo partly shown)
< 100 nM
